# measurement context: in methanol, 278.15 K
readout: solubility (mole fraction)
Could you respond with only the numeric value?

Using the record for "O=[N+]([O-])c1cccc(Cl)c1Cl" , report its solubility (mole fraction). 0.0122

---

# measurement context: in water, 300.65 K
readout: solubility (mole fraction)

Using the record for "O=[N+]([O-])c1cccc(Cl)c1Cl" , report its solubility (mole fraction). 1.07e-05

---

# measurement context: in ethanol, 285.65 K
readout: solubility (mole fraction)
Could you respond with only the numeric value?

Using the record for "O=[N+]([O-])c1cccc(Cl)c1Cl" , report its solubility (mole fraction). 0.0203

---

# measurement context: in water, 280.65 K
readout: solubility (mole fraction)
Could you respond with only the numeric value?

Using the record for "O=[N+]([O-])c1cccc(Cl)c1Cl" , report its solubility (mole fraction). 2.03e-06
